- Tested on: CAL-148
- test_description: normalised viability (% of control), CellTiter-Blue; higher = more viable cells (100 = DMSO, 0 = benzethonium chloride kill control)
- condition_info: incubation time: 72 h
measure: normalised viability (%)
Express your answer in %, writing the number without its unit.

For orientation, consider the following solved cases.
COc1cc(F)c(F)c(Nc2ccc(I)cc2F)c1NS(=O)(=O)C1(C[C@H](O)CO)CC1 [RDEA119] (1 nM) ... 88.7
CC(=O)c1c(C)c2cnc(Nc3ccc(N4CCNCC4)cn3)nc2n(C2CCCC2)c1=O (1 nM) ... 107
Cn1cnc2c(F)c(Nc3ccc(Br)cc3Cl)c(C(=O)NOCCO)cc21 [Selumetinib] (1 nM) ... 107

Need normalised viability of Nc1ncn([C@@H]2O[C@H](CO)[C@@H](O)[C@H]2O)c(=O)n1 [Azacitidine] (1 nM) , thanks.
92

###

Reported normalised response values are given for each entry in this list.
- Test system: SK-BR-3
- test_description: normalised response (% of control), CellTiter-Glo; higher = more viable cells (100 = DMSO, 0 = benzethonium chloride kill control)
- condition_info: incubation time: 72 h
Express your answer in %, writing the number without its unit.

For orientation, consider the following solved cases.
Cc1sc2c(c1C)C(c1ccc(Cl)cc1)=N[C@@H](CC(=O)OC(C)(C)C)c1nnc(C)n1-2 [(+)JQ1] (1 nM) ... 111
O=C1CN2Cc3c(ccc(Cl)c3Cl)N=C2N1 [Anagrelide] (1000 nM) ... 98.2
O=C1CN2Cc3c(ccc(Cl)c3Cl)N=C2N1 [Anagrelide] (1 nM) ... 104
Cn1cnc2c(F)c(Nc3ccc(Br)cc3Cl)c(C(=O)NOCCO)cc21 [Selumetinib] (1 nM) ... 96.5
Nc1ncn([C@@H]2O[C@H](CO)[C@@H](O)[C@H]2O)c(=O)n1 [Azacitidine] (1000 nM) ... 91.7
Nc1nc2[nH]cnc2c(=S)[nH]1 [Thioguanine] (1000 nM) ... 95.4
C[C@]12CC[C@@H]3c4ccc(OC(=O)N(CCCl)CCCl)cc4CC[C@H]3[C@@H]1CC[C@@H]2O [Estramustine] (1 nM) ... 90

Now for a further compound.
Need normalised response of Cn1cc(C2=Nc3cc(NC(=O)C(N)C4CCCCC4)cc4c3C2=CNNC4=O)cn1 (stereo not drawn) (1 nM) , thanks.
82.5

###

Reported normalised viability values are given for each entry in this list.
- Tested on: DU-4475
- test_description: normalised viability (% of control), CellTiter-Blue; higher = more viable cells (about 100 = DMSO control)
- condition_info: 100 nM; incubation time: 72 h
Please format your answer as a value with the unit trailing.

C[C@]1(O)C[C@@H](c2nc(-c3ccc4ccc(-c5ccccc5)nc4c3)c3c(N)nccn32)C1 ... 88.8%
COc1cc2c(cc1O)CC[C@@H]1[C@@H]2CC[C@]2(C)[C@@H](O)CC[C@@H]12 ... 109%
CC1(C)CNc2cc(NC(=O)c3cccnc3NCc3ccncc3)ccc21 ... 83.9%
Cc1sc2c(c1C)C(c1ccc(Cl)cc1)=N[C@@H](CC(=O)OC(C)(C)C)c1nnc(C)n1-2 [(+)JQ1] ... 90.1%

Test system DU-4475; read-out normalised viability; what value for COc1cc(F)c(F)c(Nc2ccc(I)cc2F)c1NS(=O)(=O)C1(C[C@H](O)CO)CC1 ?
28.2%
